The origin of these recorded values is patent US20230242651A1.

- system.under.test: T1, human interleukin-23 receptor (IL23R) (human, UniProt Q5VWK5 24-355, limits assumed)
- T1 construct: also called human IL23R
- T1 sequence (looked up): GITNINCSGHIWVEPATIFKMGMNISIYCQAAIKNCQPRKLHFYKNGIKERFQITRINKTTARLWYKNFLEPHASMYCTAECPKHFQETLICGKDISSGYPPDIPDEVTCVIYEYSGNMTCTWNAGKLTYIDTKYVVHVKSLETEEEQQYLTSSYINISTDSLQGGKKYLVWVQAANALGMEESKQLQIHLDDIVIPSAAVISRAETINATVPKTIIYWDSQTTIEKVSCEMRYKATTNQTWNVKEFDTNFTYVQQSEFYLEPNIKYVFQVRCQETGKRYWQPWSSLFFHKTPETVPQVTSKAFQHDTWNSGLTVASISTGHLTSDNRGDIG
- method.description: SPR, scFv
If the reported koff equals or exceeds 0.0005 s⁻¹, assign T. If not, assign F.

Solved cases (2 shown):
[ask] Evaluate Vκ3/VH6 consensus λ-capped, human IL23R specific scFv (scFv, scFv VL-linker-VH, made in E. coli; also called Vκ3VH6 capped) scFv: DIVLTQSPATLSLSPGERATLSCQASENIYSFLAWYQQKPGQAPRLLIYSASKLAAGVPARFSGSGSGTDFTLTISSLEPEDFAVYYCQQTNRYSNPDIYNVFGGGTKLTVLGGGGGSGGGGSGGGGSGGGGSQVQLQQSGPGLVKPSQTLSLTCAISGIDFNSNYYMCWIRQSPGRGLEWLGCIYVGSHVNTYYANWAKGRITINPDTSKNQFSLQLNSVTPEDTAVYYCATSGSSVLYFKFWGQGTLVTVSS : koff at minimum 0.0005 s⁻¹?
[reply] T

[ask] Evaluate Vκ1/VH4 consensus λ-capped, human IL23R specific scFv (scFv, scFv VL-linker-VH, made in E. coli; also called Vκ1VH4 capped) scFv: DIQMTQSPSSLSASVGDRVTITCQASENIYSFLAWYQQKPGKAPKLLIYSASKLAAGVPSRFSGSGSGTDFTLTISSLQPEDFATYYCQQTNRYSNPDIYNVFGGGTKLTVLGGGGGSGGGGSGGGGSGGGGSQVQLQESGPGLVKPSETLSLTCTVSGIDFNSNYYMCWIRQPPGKGLEWIGCIYVGSHVNTYYANWAKGRVTISVDTSKNQFSLKLSSVTAADTAVYYCATSGSSVLYFKFWGQGTLVTVSS : koff at minimum 0.0005 s⁻¹?
[reply] F

New cases:
[ask] Evaluate Vκ3/VH5 consensus (uncapped), human IL23R specific scFv (scFv, scFv VL-linker-VH, made in E. coli; Vκ framework IV (uncapped, full consensus); also called Vκ3VH5 uncapped) scFv: DIVLTQSPATLSLSPGERATLSCQASENIYSFLAWYQQKPGQAPRLLIYSASKLAAGVPARFSGSGSGTDFTLTISSLEPEDFAVYYCQQTNRYSNPDIYNVFGQGTKVEIKRGGGGSGGGGSGGGGSGGGGSEVQLVQSGAEVKKPGESLKISCKGSGIDFNSNYYMCWVRQMPGKGLEWMGCIYVGSHVNTYYANWAKGQVTISADKSISTAYLQWSSLKASDTAMYYCATSGSSVLYFKFWGQGTLVTVSS : koff at minimum 0.0005 s⁻¹?
[reply] T

[ask] Evaluate Vκ2/VH6 consensus λ-capped, human IL23R specific scFv (scFv, scFv VL-linker-VH, made in E. coli; also called Vκ2VH6 capped) scFv: DIVMTQSPLSLPVTPGEPASISCQASENIYSFLAWYLQKPGQSPQLLIYSASKLAAGVPDRFSGSGSGTDFTLKISRVEAEDVGVYYCQQTNRYSNPDIYNVFGGGTKLTVLGGGGGSGGGGSGGGGSGGGGSQVQLQQSGPGLVKPSQTLSLTCAISGIDFNSNYYMCWIRQSPGRGLEWLGCIYVGSHVNTYYANWAKGRITINPDTSKNQFSLQLNSVTPEDTAVYYCATSGSSVLYFKFWGQGTLVTVSS : koff at minimum 0.0005 s⁻¹?
[reply] F

[ask] Evaluate Vκ3/VH3 consensus (uncapped), human IL23R specific scFv (scFv, scFv VL-linker-VH, made in E. coli; Vκ framework IV (uncapped, full consensus); also called Vκ3VH3 uncapped) scFv: DIVLTQSPATLSLSPGERATLSCQASENIYSFLAWYQQKPGQAPRLLIYSASKLAAGVPARFSGSGSGTDFTLTISSLEPEDFAVYYCQQTNRYSNPDIYNVFGQGTKVEIKRGGGGSGGGGSGGGGSGGGGSEVQLVESGGGLVQPGGSLRLSCAASGIDFNSNYYMCWVRQAPGKGLEWVSCIYVGSHVNTYYANWAKGRFTISRDNSKNTLYLQMNSLRAEDTAVYYCATSGSSVLYFKFWGQGTLVTVSS : koff at minimum 0.0005 s⁻¹?
[reply] F
